protein stability index values for the variants below.
B1: ZNF207 (parent)
chain: YQGGPPRPPMGMRPPVMSQGGRY

variants of: B1; experiment: protein stability index of a GFP-peptide fusion (GPS, HEK-293T) (PSI 1-6); higher = more stable; settings: c terminus: native;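 note: lentivirally expressed fusions sorted by FACS into six bins by GFP to DsRed ratio, PSI derived from sequencing read proportions per bin multiplied by bin number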
Quick one: just the number, no unit, thanks!

Solved cases below.
variant-id: R22K
reported-result: 1.99

variant-id: M12G
reported-result: 2.05

variant-id: P6C
reported-result: 1.96

**Q:** Consider the variant shown here: V16I What is its recorded protein stability index?
**A:** 2.03
